quantity: melting point

Reference set (3 entries):
Given item "NS(=O)(=O)NC[C@H]1COc2cc(Cl)c(Cl)cc2O1" , the value recorded as its melting point is 119 to 121 °C

Value of measured melting point for the entry CN(C)S(=O)(=O)NCC1COc2ccccc2O1 (racemic) : 76 to 78 °C

Lookup result for NS(=O)(=O)NCC1CCc2ccccc2O1 (stereo not shown) [Compound #10, Chroman-2-ylmethylsulfamide] ; measured melting point: 100 to 101 °C

Further cases:
# melting point of NS(=O)(=O)NCCC1COc2ccccc2O1 (stereo not shown) = 101 to 103 °C
